Data provenance is ChEMBL document CHEMBL3046441.

Would you mind telling me the reported logP of each entry?
Experiment: Hydrophobicity, log P of the compound in octanol-water by shaking-flask method
Type: physicochemical
Answers are plain numbers.

See these solved cases before continuing.
CCCN(CCC)c1c([N+](=O)[O-])cc(C(F)(F)F)cc1[N+](=O)[O-]	5.07
CC(C)c1cc(NC(=O)N(C)C)no1	1.98

Give logP for each listed item.
1. CC(C)N1C(=O)c2ccccc2NS1(=O)=O
2. C=CCc1ccccc1OCC(O)CNC(C)C (stereo unspecified)
3. CCOC(=O)C(SP(=S)(OC)OC)c1ccccc1 (stereo unspecified) [PHENTHOATE]
4. Cc1c(F)c(F)c(COC(=O)[C@@H]2[C@H](/C=C(\Cl)C(F)(F)F)C2(C)C)c(F)c1F

1: 2.8; 2: 2.89; 3: 3.96; 4: 6

----------
Assay: Dissociation constant, pKa of the compound at pH 7.3
Assay type: physicochemical
recorded_metric: pKa

CCOC(=O)C(SP(=S)(OC)OC)c1ccccc1 (stereo not given) [PHENTHOATE]	0
CC(C)(C)NCC(O)COc1cccc2c1CC(O)C(O)C2 (stereo not given) [NADOLOL]	2.37
CC(=O)Nc1ccc(OCC(O)CNC(C)C)cc1 (stereo not given) [PRACTOLOL]	2.1
CC(C)(C)N(NC(=O)c1ccccc1)C(=O)c1ccccc1 [RH-5849]	0
CC(C)(C)N(NC(=O)c1ccc(Cl)cc1)C(=O)c1ccccc1 [HALOFENOZIDE]	0

Give pKa for each listed item.
1. C[C@]12C[C@H](O)[C@H]3[C@@H](CCC4=CC(=O)CC[C@@]43C)[C@@H]1CC[C@@H]2C(=O)CO [CORTICOSTERONE]
2. CNC(=C[N+](=O)[O-])NCCSCc1ccc(CN(C)C)o1 [RANITIDINE]
3. C[C@@H]1C[C@H]2[C@@H]3CCC4=CC(=O)C=C[C@]4(C)[C@@]3(F)[C@@H](O)C[C@]2(C)[C@@]1(O)C(=O)CO [DEXAMETHASONE]
4. COc1ccc(CCN(C)CCCC(C#N)(c2ccc(OC)c(OC)c2)C(C)C)cc1OC (stereo not given)
5. COP(=S)(OC)Oc1ccc(SC)c(C)c1 [FENTHION]
6. CC(=O)Nc1ccc(O)cc1 [ACETAMINOPHEN]
7. O=c1ccc2ccccc2o1 [COUMARIN]
8. O=[N+]([O-])NC1=NCCN1Cc1ccc(Cl)nc1 [IMIDACLOPRID]

1: 0; 2: 0.88; 3: 0; 4: 1.36; 5: 0; 6: 0; 7: 0; 8: 0

----------
Would you mind telling me the reported log(1/BC) of each entry?
Biological target: Nicotinic acetylcholine receptor alpha8 subunit (Periplaneta americana)
Test: Neuroblocking activity in Periplaneta americana (American cockroach) nicotinic acetylcholine receptor in abdominal fifth and sixth ganglia nerve assessed as neuroblocking concentration by neurophysiological test
One number for each entry.

See these solved cases before continuing.
O=[N+]([O-])/C=C1\NCCN1Cc1ccc(Cl)nc1	5.02
O=[N+]([O-])/N=C1\NCCN1Cc1cnc(Cl)s1 [IMIDACLOTHIZ]	5.97
O=[N+]([O-])/N=C1\SCCN1Cc1cnc(Cl)s1	6
O=[N+]([O-])/N=c1\sccn1Cc1cnc(Cl)s1	5.79
O=[N+]([O-])/N=c1\ccccn1Cc1ccc(Cl)nc1	5.09

Give log(1/BC) for each listed item.
1. O=[N+]([O-])/N=c1\ccccn1Cc1cnc(Cl)s1
2. O=[N+]([O-])/C=C1\NCCN1Cc1cnc(Cl)s1
3. O=[N+]([O-])/N=C1\NCCN1Cc1ccc(Cl)nc1 [IMIDACLOPRID]

1: 5.75; 2: 5.73; 3: 5.64

I have this molecule here, `CN1CCN(Cc2ccc(Cl)nc2)/C1=C/[N+](=O)[O-]` , and I need its recorded log(1/BC). 3.84

----------
Would you mind telling me the reported pKa of each entry?
Assay: Dissociation constant, pKa of the compound at pH 7.3
Assay type: physicochemical
Give bare numbers.

See these solved cases before continuing.
CCOP(=S)(NC(C)CC)Oc1cc(C)ccc1[N+](=O)[O-] (configuration not stated) [BUTAMIFOS]	0
C[C@]12CC[C@H]3[C@@H](CCC4=CC(=O)CC[C@@]43C)[C@@H]1CC[C@@H]2O [TESTOSTERONE]	0
CCc1ccc(C(=O)NN(C(=O)c2cc(C)cc(C)c2)C(C)(C)C)cc1 [TEBUFENOZIDE]	0
COc1nn(CSP(=S)(OC)OC)c(=O)s1 [METHIDATHION]	0
C[C@]12C=CC(=O)C=C1CC[C@@H]1[C@@H]2[C@@H](O)C[C@@]2(C)[C@H]1CC[C@]2(O)C(=O)CO [PREDNISOLONE]	0

Give pKa for each listed item.
1. CC(CCc1ccccc1)NCC(O)c1ccc(O)c(C(N)=O)c1 (configuration not stated) [LABETALOL]
2. COP(=S)(OC)Oc1ccc([N+](=O)[O-])c(C)c1 [FENITROTHION]

1. 2.1
2. 0

Give pKa for each listed item.
1. Cc1cc(=O)n(-c2ccccc2)n1C [ANTIPYRINE]
2. CN1CCN(CC(=O)N2c3ccccc3C(=O)Nc3cccnc32)CC1 [PIRENZEPINE]
3. C[C@]12CCC(=O)C=C1CC[C@@H]1[C@@H]2[C@@H](O)C[C@@]2(C)[C@H]1CC[C@]2(O)C(=O)CO [HYDROCORTISONE]
4. COP1(=S)OCc2ccccc2O1 (configuration not stated) [SALITHION]
5. Cc1c(N(C)C)c(=O)n(-c2ccccc2)n1C [AMINOPYRINE]

1: 0; 2: 0.7; 3: 0; 4: 0; 5: 0

Give pKa for each listed item.
1. COc1ccc([C@@H]2Sc3ccccc3N(CCN(C)C)C(=O)[C@@H]2OC(C)=O)cc1 [DILTIAZEM]
2. CC(C)NCC(O)COc1cccc2[nH]ccc12 (configuration not stated) [PINDOLOL]
3. O=C(N[C@H](CO)[C@H](O)c1ccc([N+](=O)[O-])cc1)C(Cl)Cl [CHLORAMPHENICOL]
4. Clc1cccc(Cl)c1N=C1NCCN1 [CLONIDINE]
5. CCn1cc(C(=O)O)c(=O)c2cc(F)c(N3CCNCC3)cc21 [NORFLOXACIN]

1: 0.76; 2: 2.24; 3: 0; 4: 0.75; 5: 2.08

----------
Assay: Dissociation constant, pKa of the compound at pH 7.3
Assay type: physicochemical
Would you mind telling me the reported pKa of each entry?
Give bare numbers.

CCN(CC)C(=O)SCc1ccc(Cl)cc1 [THIOBENCARB]	0
CCC(C)c1ccccc1OC(=O)NC (stereo not given) [FENOBUCARB]	0
COc1cccc(C(=O)NN(C(=O)c2cc(C)cc(C)c2)C(C)(C)C)c1C [METHOXYFENOZIDE]	0
C=CCOc1ccccc1OCC(O)CNC(C)C (stereo not given) [OXPRENOLOL]	2.3

Let us examine a further case.
I have this compound here, CCCC(=O)Nc1ccc(OCC(O)CNC(C)C)c(C(C)=O)c1 (stereo not given) [ACEBUTOLOL] , and I need its recorded pKa. 2.11
